# System: Cryptococcus neoformans
# Assay protocol: Concentration required to inhibit growth of MY 2061 strain of Cryptococcus neoformans
# Assay type: functional
Measured MFC by item
// units = µg/mL; emit number, no label

Consider the worked cases shown below.
Compound	Reading unit	MFC
C=C(CCC12OC(C(=O)O)C(O)(C(=O)O)C(C(=O)O)(O1)[C@H](OCCCCCCCCCCCC)[C@H]2O)[C@@H](OC(C)=O)[C@H](C)Cc1ccccc1 (stereo partly drawn)	µg/mL	0.12
C=C(CCC12OC(C(=O)O)C(O)(C(=O)O)C(C(=O)O)(O1)[C@H](OC(=O)OCCCCCCCCCC)[C@H]2O)[C@@H](OC(C)=O)[C@H](C)Cc1ccccc1 (stereo partly drawn)	µg/mL	0.25

Now, please, on to the next compound.
Param item = C=C(CCC12OC(C(=O)O)C(O)(C(=O)O)C(C(=O)O)(O1)[C@H](OC(=O)/C=C/[C@@H](C)C[C@@H](C)CC)[C@H]2O)[C@@H](OC(C)=O)[C@H](C)Cc1ccccc1 (stereo partly drawn) ; retrieve measured MFC.
1

###

# Tested on: Candida albicans
# Assay protocol: Concentration required to inhibit growth of MY 1055 strain of Candida albicans
# Assay type: functional
Measurement name: MFC (µg/mL)
Only the number, expressed in µg/mL, is required.

Some compounds with known MFC results, for comparison:
Compound	Measurement name	Numeric value
C=C(CCC12OC(C(=O)O)C(O)(C(=O)O)C(C(=O)O)(O1)[C@H](OC(=O)CCCCCCCCCCC)[C@H]2O)[C@@H](OC(C)=O)[C@H](C)Cc1ccccc1 (stereo partly drawn)	MFC	4
C=C(CCC12OC(C(=O)O)C(O)(C(=O)O)C(C(=O)O)(O1)[C@H](OC(=O)OCCCCCCCCCC)[C@H]2O)[C@@H](OC(C)=O)[C@H](C)Cc1ccccc1 (stereo partly drawn)	MFC	8

Now let's try a different one.
# MFC lookup, item C=C(CCC12OC(C(=O)O)C(O)(C(=O)O)C(C(=O)O)(O1)[C@H](OC(=O)NCCCCCCCCCC)[C@H]2O)[C@@H](OC(C)=O)[C@H](C)Cc1ccccc1 (stereo partly drawn)
8

###

# System under test: Squalene synthase (Rattus norvegicus, UniProt Q02769)
# Sequence (Q02769 whole entry): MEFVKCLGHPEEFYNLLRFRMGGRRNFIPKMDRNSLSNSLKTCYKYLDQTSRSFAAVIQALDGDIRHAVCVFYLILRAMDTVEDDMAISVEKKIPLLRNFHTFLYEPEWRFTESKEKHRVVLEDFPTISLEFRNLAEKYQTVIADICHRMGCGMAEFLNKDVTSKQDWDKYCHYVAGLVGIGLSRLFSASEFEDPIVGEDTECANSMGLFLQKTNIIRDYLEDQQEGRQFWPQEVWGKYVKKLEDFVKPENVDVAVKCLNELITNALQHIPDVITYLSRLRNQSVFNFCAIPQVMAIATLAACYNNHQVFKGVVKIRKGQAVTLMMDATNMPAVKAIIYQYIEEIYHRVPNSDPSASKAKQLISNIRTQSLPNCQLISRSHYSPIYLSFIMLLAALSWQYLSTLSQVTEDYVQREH
# Assay protocol: Tested for inhibition against squalene synthase enzyme in rat liver
Measurement name: IC50 (pM)
Expressed in pM, but write only the number.

Past entries and their recorded results:
Compound	System under test	Reading unit	Numeric value
C=C(CCC12OC(C(=O)O)C(O)(C(=O)O)C(C(=O)O)(O1)[C@H](OC(=O)CC(C)C)[C@H]2O)[C@@H](OC(C)=O)[C@H](C)Cc1ccccc1 (stereo not given in full)	Squalene synthase (Rattus norvegicus, UniProt Q02769)	pM	4300
C=C(CCC12OC(C(=O)O)C(O)(C(=O)O)C(C(=O)O)(O1)[C@H](OCCC[C@@H](C)C[C@@H](C)CC)[C@H]2O)[C@@H](OC(C)=O)[C@H](C)Cc1ccccc1 (stereo not given in full)	Squalene synthase (Rattus norvegicus, UniProt Q02769)	pM	200
C=C(CCC12OC(C(=O)O)C(O)(C(=O)O)C(C(=O)O)(O1)[C@H](OC(=O)CCCCCCCCCCC)[C@H]2O)[C@@H](OC(C)=O)[C@H](C)Cc1ccccc1 (stereo not given in full)	Squalene synthase (Rattus norvegicus, UniProt Q02769)	pM	800
C=C(CCC12OC(C(=O)O)C(O)(C(=O)O)C(C(=O)O)(O1)[C@H](OC(=O)CCCCCCCCCCOc1ccccc1)[C@H]2O)[C@@H](OC(C)=O)[C@H](C)Cc1ccccc1 (stereo not given in full)	Squalene synthase (Rattus norvegicus, UniProt Q02769)	pM	130
CC[C@H](C)C[C@H](C)CCC(=O)O[C@@H]1[C@@H](O)C2(CCCCCCc3ccccc3)OC(C(=O)O)C(O)(C(=O)O)C1(C(=O)O)O2 (stereo not given in full)	Squalene synthase (Rattus norvegicus, UniProt Q02769)	pM	1800
C=C(CCC12OC(C(=O)O)C(O)(C(=O)O)C(C(=O)O)(O1)[C@H](OCCCCCCCCOc1ccccc1)[C@H]2O)[C@@H](OC(C)=O)[C@H](C)Cc1ccccc1 (stereo not given in full)	Squalene synthase (Rattus norvegicus, UniProt Q02769)	pM	160

What does the data say about its IC50? Entry: C=C(CCC12OC(C(=O)O)C(O)(C(=O)O)C(C(=O)O)(O1)[C@H](OC(=O)NC1CC1)[C@H]2O)[C@@H](OC(C)=O)[C@H](C)Cc1ccccc1 (stereo not given in full)
3200

Then this compound: C=C(CCC12OC(C(=O)O)C(O)(C(=O)O)C(C(=O)O)(O1)[C@H](OC(=O)C(C)C)[C@H]2O)[C@@H](OC(C)=O)[C@H](C)Cc1ccccc1 (stereo not given in full)
21000

Field entry: C=C(CCC12OC(C(=O)O)C(OCCCCCCCCOc3ccccc3)(C(=O)O)C(C(=O)O)(O1)[C@H](O)[C@H]2O)[C@@H](OC(C)=O)[C@H](C)Cc1ccccc1 (stereo not given in full)
810

What about this compound? C=C(CCC12OC(C(=O)O)C(O)(C(=O)O)C(C(=O)O)(O1)[C@H](OC(=O)CCCCCCC)[C@H]2O)[C@@H](OC(C)=O)[C@H](C)Cc1ccccc1 (stereo not given in full)
660
